FYI, the data here is from ChEMBL document CHEMBL1136753.

System: Jurkat
Test: Inhibition of Calcium release in jurkat cells
Assay type: functional, cell-based
Conditions: Homo sapiens
As shown below, each of these molecules has a reported EC50 value.

molecule	outputUnit	EC50
Cc1nc(O)c2c(ccc3nc(Nc4c(Cl)cccc4Cl)n(C)c32)c1CC(=O)N1CCOCC1	µM	0.66
COC(=O)c1c(C)nc(O)c2c1ccc1nc(Nc3c(Cl)cccc3Cl)n(C)c12	µM	0.09
CCNC(=O)Cc1c(C)nc(O)c2c1ccc1nc(Nc3c(Cl)cccc3Cl)n(C)c12	µM	0.6
COC(=O)/C=C/c1nc(O)c2c(ccc3nc(Nc4c(Cl)cccc4Cl)n(C)c32)c1C	µM	0.07
Cc1nc(O)c2c(ccc3nc(Nc4c(Cl)cccc4Cl)n(C)c32)c1CCN1CCOCC1	µM	0.27
Cc1c(/C=C/CN(C)Cc2ccccc2)nc(O)c2c1ccc1nc(Nc3c(Cl)cccc3Cl)n(C)c12	µM	0.2
CCc1nc(O)c2c(ccc3nc(Nc4c(Cl)cccc4Cl)n(C)c32)c1C	µM	0.08
Cc1c(CNCc2ccccc2)nc(O)c2c1ccc1nc(Nc3c(Cl)cccc3Cl)n(C)c12	µM	4.2
CCN(CC)C/C=C/c1nc(O)c2c(ccc3nc(Nc4c(Cl)cccc4Cl)n(C)c32)c1C	µM	0.007
Cc1nc(O)c2c(ccc3nc(Nc4c(Cl)cccc4Cl)n(C)c32)c1CCCN1CCOCC1	µM	0.3
Cc1nc(O)c2c(ccc3nc(Nc4c(Cl)cccc4Cl)n(C)c32)c1CCO	µM	0.09
Cc1nc(O)c2c(ccc3nc(Nc4c(Cl)cccc4Cl)n(C)c32)c1CC(=O)N1CCCC1	µM	0.27
CCNC/C=C/c1nc(O)c2c(ccc3nc(Nc4c(Cl)cccc4Cl)n(C)c32)c1C	µM	0.009
CCOC(=O)Cc1c(C)nc(O)c2c1ccc1nc(Nc3c(Cl)cccc3Cl)n(C)c12	µM	0.14
Cc1nc(O)c2c(ccc3nc(Nc4c(Cl)cccc4Cl)n(C)c32)c1C	µM	0.13
C=Cc1nc(O)c2c(ccc3nc(Nc4c(Cl)cccc4Cl)n(C)c32)c1C	µM	0.02
Cc1c(/C=C/CO)nc(O)c2c1ccc1nc(Nc3c(Cl)cccc3Cl)n(C)c12	µM	0.008
Cc1nc(O)c2c(ccc3nc(Nc4c(Cl)cccc4Cl)n(C)c32)c1CC(=O)N1CCN(C)CC1	µM	1.2
Cc1nc(O)c2c(ccc3[nH]c(Nc4c(Cl)cccc4Cl)nc32)c1C	µM	0.18
Cc1nc(O)c2c(ccc3nc(Nc4c(Cl)cccc4Cl)n(C)c32)c1CCC(=O)N1CCOCC1	µM	0.27
C=CC(O)c1nc(O)c2c(ccc3nc(Nc4c(Cl)cccc4Cl)n(C)c32)c1C (stereo unspecified)	µM	1.3
Cc1c(/C=C/CN2CCCC2)nc(O)c2c1ccc1nc(Nc3c(Cl)cccc3Cl)n(C)c12	µM	0.005
Cc1nc(O)c2c(cc(CNCCO)c3nc(Nc4c(Cl)cccc4Cl)n(C)c32)c1C	µM	0.12
Cc1c(/C=C/CN2CCOCC2)nc(O)c2c1ccc1nc(Nc3c(Cl)cccc3Cl)n(C)c12	µM	0.03
Cc1c(C=O)nc(O)c2c1ccc1nc(Nc3c(Cl)cccc3Cl)n(C)c12	µM	0.45
COC(=O)CCc1nc(O)c2c(ccc3nc(Nc4c(Cl)cccc4Cl)n(C)c32)c1C	µM	0.23
Cc1c(/C=C/CN)nc(O)c2c1ccc1nc(Nc3c(Cl)cccc3Cl)n(C)c12	µM	0.021
Cc1c(/C=C/CN(C)C)nc(O)c2c1ccc1nc(Nc3c(Cl)cccc3Cl)n(C)c12	µM	0.01
COc1ccc(CNCc2cc3c(C)c(C)nc(O)c3c3c2nc(Nc2c(Cl)cccc2Cl)n3C)cc1	µM	0.5
Cc1nc(O)c2c(cc(-c3ccc(F)nc3F)c3nc(Nc4c(Cl)cccc4Cl)n(C)c32)c1C	µM	0.37
Cc1c(CO)nc(O)c2c1ccc1nc(Nc3c(Cl)cccc3Cl)n(C)c12	µM	0.24
